Taken from patent US20080207522A1.

Tested on: Pseudomonas aeruginosa PAO1 strain H103
EXPERIMENTAL_CONTEXT: PAO1
Ends that are not written are not given here.
Record form. Attribute: MIC P. aerug. Fill in for each entry.
Unit µg/mL implied. Number only.

Data request: So what does the record say about MIC P. aerug for RLARIVVIRVA-NH2 (C-terminus assumed) [Bac101] ?
Data returned: 63

Data request: Which MIC P. aerug is reported for this substance? RLRRIVVIRVAR-NH2 (C-terminus assumed) [Bac252]
Data returned: 8

Data request: Reported MIC P. aerug, substance GLARIVVIRVAR-NH2 (C-terminus assumed) [Bac206] : ____
Data returned: 125

Data request: State the recorded MIC P. aerug for this entry: RLRRIVVIRVRR-NH2 (C-terminus assumed) [Bac433]
Data returned: 8

Data request: I have this substance here, RLARIVVIRVAR-NH2 [Bac2A, reference compound] , and I need its recorded MIC P. aerug.
Data returned: 50

Data request: Sample RWWKIWVIRWWR-NH2 (C-terminus assumed) [Bac432] — what was its MIC P. aerug?
Data returned: 31

Data request: Consider the substance shown here: RIWVIWRR-NH2 (C-terminus assumed) [Bac436] What is its recorded MIC P. aerug?
Data returned: 8

Data request: Quick one: MIC P. aerug for RLWRIVVIRVAR-NH2 (C-terminus assumed) [Bac256] ?
Data returned: 8

Data request: Consider the substance RLARRVVIRVAR-NH2 (C-terminus assumed) [Bac290] and give its measured MIC P. aerug.
Data returned: 63
